experimentSummary: Cell Viability - LYMP2-022 (AID 987);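 further: cells exposed to compound for 24 hr; nearly all actives have a fitted effect of over 55% in size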
appliedConditions: LYMP2-022 lymphoblastoid cell viability; series mostly up to 92.2 µM
Results filed as inconclusive are left out. Calls of active or inactive are those of the source. The call rests on the fitted dose curve; in most records, active means well fitted cell-killing curve with a large enough effect; inconclusive means small, poorly fitted or top-dose-only effect; inactive means flat fitted curve, though single readings scatter.
Outcome field: choose from 1 = active, -1 = inactive

Reference set, count: 6
Oc1ccc(Cl)cc1Cc1ccccc1; -1
Oc1ccccc1-c1ccccc1; -1
NCC(O)c1ccc(O)cc1 (configuration not stated); -1
c1ccc2c(c1)Nc1ccccc1S2; -1
CCOP(=S)(OCC)Oc1cc(C)nc(C(C)C)n1; -1
N[C@@H](Cc1ccc(N(CCCl)CCCl)cc1)C(=O)O; 1

Please examine the following record next.
In: Given CCCC(C)(COC(N)=O)COC(=O)NC(C)C (configuration not stated) , state the outcome it received in this test.
Out: -1

====

assayTarget: ATPase family AAA domain-containing protein 5 (Homo sapiens) (UniProt Q96QE3)
Sequence (Q96QE3 whole entry, looked up, the tested form may be a part): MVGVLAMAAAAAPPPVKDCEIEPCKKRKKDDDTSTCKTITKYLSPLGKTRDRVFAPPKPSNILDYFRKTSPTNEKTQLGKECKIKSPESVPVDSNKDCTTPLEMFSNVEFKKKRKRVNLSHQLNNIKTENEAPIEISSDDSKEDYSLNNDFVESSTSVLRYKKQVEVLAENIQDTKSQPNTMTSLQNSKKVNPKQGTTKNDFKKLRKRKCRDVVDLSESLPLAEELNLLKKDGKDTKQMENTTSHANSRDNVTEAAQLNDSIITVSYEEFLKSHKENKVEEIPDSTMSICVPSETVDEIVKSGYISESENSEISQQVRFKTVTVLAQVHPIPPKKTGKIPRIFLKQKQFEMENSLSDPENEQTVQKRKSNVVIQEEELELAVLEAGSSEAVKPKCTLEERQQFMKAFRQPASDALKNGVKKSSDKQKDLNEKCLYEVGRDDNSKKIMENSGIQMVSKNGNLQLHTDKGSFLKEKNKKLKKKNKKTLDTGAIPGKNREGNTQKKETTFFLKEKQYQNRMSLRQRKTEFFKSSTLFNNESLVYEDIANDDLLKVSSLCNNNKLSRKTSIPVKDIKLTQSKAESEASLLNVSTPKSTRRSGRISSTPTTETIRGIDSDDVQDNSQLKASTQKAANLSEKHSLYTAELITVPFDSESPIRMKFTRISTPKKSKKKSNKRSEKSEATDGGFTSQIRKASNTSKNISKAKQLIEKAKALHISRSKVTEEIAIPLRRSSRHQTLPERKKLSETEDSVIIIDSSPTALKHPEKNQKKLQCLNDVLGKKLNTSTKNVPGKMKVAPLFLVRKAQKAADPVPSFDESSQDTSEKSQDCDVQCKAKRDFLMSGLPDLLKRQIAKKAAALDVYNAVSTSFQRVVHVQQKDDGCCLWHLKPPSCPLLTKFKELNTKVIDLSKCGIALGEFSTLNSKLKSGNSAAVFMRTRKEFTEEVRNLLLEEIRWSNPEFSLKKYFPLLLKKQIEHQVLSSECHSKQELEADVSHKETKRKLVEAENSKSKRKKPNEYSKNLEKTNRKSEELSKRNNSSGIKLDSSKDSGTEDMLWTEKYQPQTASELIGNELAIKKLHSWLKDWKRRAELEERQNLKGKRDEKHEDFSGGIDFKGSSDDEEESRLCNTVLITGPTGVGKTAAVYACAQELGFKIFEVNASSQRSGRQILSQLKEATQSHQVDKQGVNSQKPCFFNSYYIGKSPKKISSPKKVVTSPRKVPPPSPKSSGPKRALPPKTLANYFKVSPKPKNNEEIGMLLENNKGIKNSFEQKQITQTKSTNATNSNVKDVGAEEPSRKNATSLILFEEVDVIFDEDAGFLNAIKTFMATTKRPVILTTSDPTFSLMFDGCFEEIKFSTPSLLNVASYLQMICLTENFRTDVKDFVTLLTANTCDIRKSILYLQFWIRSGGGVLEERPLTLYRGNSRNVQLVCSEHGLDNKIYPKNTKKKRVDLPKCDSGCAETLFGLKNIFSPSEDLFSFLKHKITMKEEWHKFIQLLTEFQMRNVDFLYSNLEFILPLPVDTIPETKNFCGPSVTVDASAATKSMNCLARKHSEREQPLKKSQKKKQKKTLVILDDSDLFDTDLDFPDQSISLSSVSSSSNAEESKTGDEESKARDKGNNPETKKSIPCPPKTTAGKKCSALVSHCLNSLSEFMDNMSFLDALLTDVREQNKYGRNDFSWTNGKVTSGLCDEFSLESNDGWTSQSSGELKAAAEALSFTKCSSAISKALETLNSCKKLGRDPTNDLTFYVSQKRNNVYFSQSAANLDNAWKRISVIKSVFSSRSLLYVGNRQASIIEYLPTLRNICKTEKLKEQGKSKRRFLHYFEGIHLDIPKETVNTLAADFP
experimentSummary: Validation screen for small molecules that inhibit ELG1-dependent DNA repair in human embryonic kidney (HEK293T) cells expressing luciferase-tagged ELG1 (AID 493107); further: nearly all actives have a fitted effect of over 70% in size
appliedConditions: HEK293T ELG1-luciferase level, luminescence, 5-fluorouridine co-treatment, 16 h; series mostly up to 46.1 µM
Inconclusive results are not listed. Calls of active or inactive are those of the source. Calls follow the shape of the dose curve; as a rule, active = well fitted inhibition curve with a large enough effect; inconclusive = small, poorly fitted or top-dose-only effect, or effect the other way; inactive = flat fitted curve, though single readings scatter.
Your response should consist of one outcome taken from class 1 for active, class 0 for inactive

CNCC(O)c1ccc(O)cc1 (stereo unspecified); class 0
Cc1cccc(C)c1NC1=NCCCS1; class 0
c1ccc2c(c1)OCC(C1=NCCN1)O2 (stereo unspecified); class 1

In: Assay result, entry CC[C@@H](CO)NC(=O)[C@@H]1C=C2c3cccc4[nH]cc(c34)C[C@H]2N(C)C1 — outcome?
Out: class 0

In: Same question for CCCN1CCC[C@@H]2Cc3nc(N)ncc3C[C@H]21 please.
Out: class 0

In: Please answer likewise for CC(O)(CS(=O)(=O)c1ccc(F)cc1)C(=O)Nc1ccc(C#N)c(C(F)(F)F)c1 (stereo unspecified)
Out: class 0

====

appliedConditions: Ebola virus entry cell assay, ratio channel
The source made the active and inactive calls.
In this exercise, the only acceptable responses are True for active, False for inactive

Some solved cases for reference:
C[C@]12C/C(=C/O)C(=O)C[C@@H]1CC[C@@H]1[C@@H]2CC[C@@]2(C)[C@H]1CC[C@]2(C)O; False
CCn1cc(C(=O)O)c(=O)c2cc(F)c(N3CCNCC3)cc21; False
CCOC(=O)Nc1ccc2c(c1)N(C(=O)CCN1CCOCC1)c1ccccc1S2; False

In: I would be grateful if you could indicate the recorded call for O=C1CC[C@@]2(O)[C@H]3Cc4ccc(O)c5c4[C@@]2(CCN3CC2CC2)[C@H]1O5 .
Out: False

In: Next compound: CC(S)C(=O)NCC(=O)O (stereo not given)
Out: False

In: Moving on to C[C@@H](O)[C@H]1C(=O)N2C(C(=O)O)=C(S[C@@H]3CN[C@H](C(=O)N(C)C)C3)[C@H](C)[C@H]12
Out: False

====

appliedConditions: Ebola virus entry assay, blue channel fluorescence
The source made the active and inactive calls.
Tick one outcome: yes (1) for active, no (0) for inactive

CN(CCOc1ccc(NS(C)(=O)=O)cc1)CCc1ccc(NS(C)(=O)=O)cc1; no (0)

Consider the record given below.
In: What outcome does the record of this test show for CCCC(C)(COC(N)=O)COC(=O)NC(C)C (stereo unspecified) ?
Out: no (0)

====

experimentSummary: qHTS of pediatric cancer cell lines to identify multiple opportunities for drug repurposing: Primary screen for Rh30 cells (AID 1347107); further: nearly all actives have a fitted effect of over 75% in size
appliedConditions: Rh30 rhabdomyosarcoma viability, CellTiter-Glo luminescence, 48 h; series mostly up to 46 µM
Inconclusive results are not listed. The source made the active and inactive calls. The call rests on the fitted dose curve; in most records, active means well fitted cell-killing curve with a large enough effect; inconclusive means small, poorly fitted or top-dose-only effect; inactive means no such curve, though single readings can be large or run the other way.
propertyName: activity change, negative = cytotoxic

Completed entries (count: 5):
CC(CCc1ccccc1)NC(C)C(O)c1ccc(O)cc1 (configuration not stated); inactive
c1ccc2c(c1)Nc1ccccc1S2; inactive
O=C(O)c1ccc2[nH]cc(CCCCN3CC=C(c4ccccc4)CC3)c2c1; inactive
Oc1cccc2cccnc12; inactive
O=P1(NCCCl)OCCCN1CCCl (configuration not stated); inactive

In: Which activity change, negative = cytotoxic value belongs to NP(N)(=O)NC(=O)c1ccc(F)cc1 ?
Out: inactive

In: And for CN(C)CCc1ccc(O)cc1 ?
Out: inactive

====

Tested on: AS120
experimentSummary: qHTS profiling for inhibitors of Plasmodium falciparum proliferation (AID 504749); further: nearly all actives have a fitted effect of over 60% in size
appliedConditions: P. falciparum in erythrocytes, SYBR Green DNA, 72 h; series mostly up to 28.7 µM
Inconclusive results are not listed. The source made the active and inactive calls. Calls follow the shape of the dose curve; as a rule, active = well fitted inhibition curve with a large enough effect; inconclusive = small, poorly fitted or top-dose-only effect; inactive = flat fitted curve, though single readings scatter.
Your reply should match one of these outcome classes. 1.0 = active, 0.0 = inactive

Worked cases, answers included:
NCCc1cc(O)c(O)cc1O; 0.0
Clc1cccc(N2CCNCC2)c1; 0.0

In: Would you mind telling me which call this test gave O=C1NCN(c2ccccc2)C12CCN(CC1COc3ccccc3O1)CC2 (stereo not given) ?
Out: 0.0

In: # repeat for Cn1c(CCCC(=O)O)nc2cc(N(CCCl)CCCl)ccc21
Out: 0.0

In: Also need c1ccc(C2CC2)c(OCC2=NCCN2)c1 , thanks.
Out: 0.0

In: Same lookup for Cc1ncc(CNC(=O)N(CCCl)N=O)c(N)n1 , please.
Out: 0.0

====

experimentSummary: qHTS of pediatric cancer cell lines to identify multiple opportunities for drug repurposing: Primary screen for Saos-2 cells (AID 1347097); further: nearly all actives have a fitted effect of over 40% in size
appliedConditions: Saos-2 viability, CellTiter-Glo ATP luminescence, 48 h; series mostly up to 46 µM
Inconclusive results are not listed. The source made the active and inactive calls. Calls follow the shape of the dose curve; as a rule, active = well fitted cell-killing curve with a large enough effect; inconclusive = small, poorly fitted or top-dose-only effect; inactive = no such curve, though single readings can be large or run the other way.
Your reply should match one of these outcome classes. active, inactive

In: State the result this test recorded for O=P1(NCCCl)OCCCN1CCCl (stereo not given) .
Out: inactive

In: Another compound to check: CC(C)(C)NCC(O)c1cc(Cl)c(N)c(Cl)c1 (stereo not given)
Out: inactive

In: Another compound to check: Cc1ccc(-c2nc3ccc(C)cn3c2CC(=O)N(C)C)cc1
Out: inactive

In: Likewise for O=C1CC[C@@]2(O)[C@H]3Cc4ccc(O)c5c4[C@@]2(CCN3CC2CC2)[C@H]1O5 ?
Out: inactive

In: Follow-up item: C[C@@H]1[C@@H](CC(C[C@H]2O[C@@H]3O[C@]4(C)CC[C@@H]5[C@H](C)CC[C@@H]([C@H]2C)[C@@]35OO4)C[S+](=O)([O-])c2ccc(COC(=O)N(C)C)cc2)O[C@@H]2O[C@]3(C)CC[C@H]4[C@H](C)CC[C@@H]1[C@@]24OO3 (stereo not given in full)
Out: active

In: Can you handle CC1OC(C)OC(C)O1 (stereo not given) next?
Out: inactive

In: Record: NP(N)(=O)NC(=O)c1ccc(F)cc1
Out: inactive

In: // next record C=C1CC[C@@]2(O)[C@H]3Cc4ccc(O)c5c4[C@@]2(CCN3CC2CC2)[C@H]1O5
Out: inactive

In: Now consider Cc1cccc(C)c1NC1=NCCCS1 and answer again.
Out: inactive

In: Moving on to C[C@]12CCC(=O)C(O)=C1CC[C@@H]1[C@@H]2CC[C@]2(C)C(=O)CC[C@@H]12
Out: inactive

====

experimentSummary: qHTS profiling for inhibitors of Plasmodium falciparum proliferation (AID 504749); further: nearly all actives have a fitted effect of over 60% in size; further: potency means the concentration at half of the fitted maximal effect
appliedConditions: P. falciparum in erythrocytes, SYBR Green DNA, 72 h; parasite line A
Records with an inconclusive call do not appear. Calls of active or inactive are those of the source. Calls come from the whole dose curve; as a rule, active = well fitted inhibition curve with a large enough effect; inconclusive = small, poorly fitted or top-dose-only effect; inactive = flat fitted curve, though single readings scatter.
propertyName: Potency

Examples from the recorded data:
Clc1ccc(COC(Cn2ccnc2)c2ccc(Cl)cc2Cl)cc1 (stereo unspecified); 3.55 µM (active)
CN1C[C@H](CNC(=O)OCc2ccccc2)C[C@@H]2c3cccc4c3c(cn4C)C[C@H]21; 7.08 µM (active)
Fc1ccc(C(OCCN2CCN(CCCc3ccccc3)CC2)c2ccc(F)cc2)cc1; 8.91 µM (active)
Cc1ccc(S(=O)(=O)N[C@@H](CCCCN)C(=O)CCl)cc1; 7.08 µM (active)

In: State the recorded Potency for this entry: O=[N+]([O-])c1cc([As](=O)(O)O)ccc1O
Out: 3.98 µM (active)

In: Can you handle O=c1[nH]c2ccccc2n1CCCN1CCC(n2c(=O)[nH]c3cc(Cl)ccc32)CC1 next?
Out: 11.2 µM (active)

====

experimentSummary: Quantitative High-Throughput drug screen in 47 multiple myeloma cell lines against the NCATS MIPE library collection: L363_DSMZ cell viability assay (AID 1918984); further: nearly all actives have a fitted effect of over 40% in size
appliedConditions: L363 myeloma viability, CellTiter-Glo ATP luminescence, 48 h; series mostly up to 45.8 µM
Records with an inconclusive call do not appear. The source made the active and inactive calls. Calls come from the whole dose curve; as a rule, active = well fitted cell-killing curve with a large enough effect; inconclusive = small, poorly fitted or top-dose-only effect, or effect the other way; inactive = no such curve, though single readings can be large or run the other way.
Choose the fitting class; nothing outside label 1 = active, label 0 = inactive is accepted.

In: Look up the recorded call for Cc1cccc(C)c1NC(=O)CN1CCCC1=O in this test.
Out: label 0

====

experimentSummary: Quantitative High-Throughput drug screen in 47 multiple myeloma cell lines against the NCATS MIPE library collection: RPMI8226_ATCC cell viability assay (AID 1919871); further: nearly all actives have a fitted effect of over 30% in size
appliedConditions: RPMI8226 myeloma viability, CellTiter-Glo ATP luminescence, 48 h; series mostly up to 45.8 µM
Excerpt: PI: Beverly A. Mock Ph.D. Laboratory of Cancer Biology and Genetics, Center for Cancer Research, National Cancer Institute, National Institute of Health, Bethesda, Maryland […] 5; Detector; 425V; Luminescence; Viewlux PerkinElmer. […] 1. […] Briefly, the corresponding myeloma cell lines were screened in 1,536-well plates with 500 cells, 5-uL per well for inhibition of cell viability (assessed by measuring ATP levels with CellTiterGlo). […]
Results filed as inconclusive are left out. Calls of active or inactive are those of the source. The call rests on the fitted dose curve; in most records, active means well fitted cell-killing curve with a large enough effect; inconclusive means small, poorly fitted or top-dose-only effect, or effect the other way; inactive means no such curve, though single readings can be large or run the other way.
Form entry, call: pick from yes (1) = active, no (0) = inactive

Cc1cccc(C)c1NC(=O)CN1CCCC1=O; no (0)
CC1=C2C[C@@H]3[C@@H](CC=C4C[C@@H](O)CC[C@@]43C)[C@@H]2CC[C@]12O[C@H]1C[C@H](C)CN[C@H]1[C@H]2C; yes (1)
O=C(O)C(=O)c1cn(Cc2ccccc2)c2ccc(-c3ccc(OC(F)(F)F)cc3)cc12; no (0)
CNC(=O)c1ccc(N2C(=S)N(c3ccc(C#N)c(C(F)(F)F)c3)C(=O)C23CCC3)cc1F; no (0)
CCCC(C)(COC(N)=O)COC(=O)NC(C)C (stereo unspecified); no (0)

# ---- query molecule ----
In: // return assay outcome for COc1ccc2c(c1OC)CN1CCc3cc4c(cc3C1C2)OCO4 (stereo unspecified)
Out: no (0)
